EC50 listing for selected compounds.
Tested on: SW1990
measurement_notes: MTT cell viability, SW1990 cells
Assay type: cell-based, human
applied_conditions: SW1990 pancreatic adenocarcinoma, p53 Mutant (Deletion)
Bridge positions count the residues as written; N and C are the ends. Square brackets hold non-standard residues; d marks the D form. Peptide text beside a SMILES is read from it.

[
  {
    "compound": "N=C(N)NCCC[C@@H]1NC(=O)[C@@H](CCCNC(=N)N)NC(=O)[C@H](CCCCN)NC(=O)[C@@H](N)CCCCNC(=O)CC[C@@H](C(=O)O)NC(=O)[C@@H](CCCNC(=N)N)NC(=O)[C@H](CCCNC(=N)N)NC(=O)[C@@H](CCCCN)NC(=O)[C@H](CCCCN)NC(=O)[C@@H](CCCNC(=N)N)NC(=O)CNC(=O)[C@@H](CCCNC(=N)N)NC1=O [cTAT] (H-KK[dR]R[dR]G[dR]K[dK]R[dR]E-OH; lactam 1-12; N-terminus and C-terminus assumed)",
    "system_name": "SW1990",
    "EC50": "> 100 µM"
  }
]

Consider the additional compound presented here.
Qu. Would you kindly share the measured EC50 for `COc1ccc(C2=N[C@@H](c3ccc(Cl)cc3)[C@@H](c3ccc(Cl)cc3)N2C(=O)N2CCNC(=O)C2)c(OC(C)C)c1` ?
Ans. > 100 µM

----------
Test system: CT26
measurement_notes: MTT cell viability, CT26 cells
Format: cell-based
applied_conditions: CT26 murine colon cancer, p53 WT
readout_label: EC50 (µM)
Respond numerically; units are µM and should not be typed.

Qu. May I ask what EC50 has been recorded for `COc1ccc(C2=N[C@@H](c3ccc(Cl)cc3)[C@@H](c3ccc(Cl)cc3)N2C(=O)N2CCNC(=O)C2)c(OC(C)C)c1` ?
Ans. 9.8

----------
EC50 for assorted compounds
Test system: HL-60
measurement_notes: MTT cell viability, HL-60 cells
Format: cell-based, human
applied_conditions: HL-60 adult acute myeloid leukemia, p53 Null
Bridge positions count the residues as written; N and C are the ends. Square brackets hold non-standard residues; d marks the D form. Peptide text beside a SMILES is read from it.

[
  {
    "compound": "N=C(N)NCCC[C@@H]1NC(=O)[C@@H](CCCNC(=N)N)NC(=O)[C@H](CCCCN)NC(=O)[C@@H](N)CCCCNC(=O)CC[C@@H](C(=O)O)NC(=O)[C@@H](CCCNC(=N)N)NC(=O)[C@H](CCCNC(=N)N)NC(=O)[C@@H](CCCCN)NC(=O)[C@H](CCCCN)NC(=O)[C@@H](CCCNC(=N)N)NC(=O)CNC(=O)[C@@H](CCCNC(=N)N)NC1=O [cTAT] (H-KK[dR]R[dR]G[dR]K[dK]R[dR]E-OH; lactam 1-12; N-terminus and C-terminus assumed)",
    "result": "> 100 µM"
  }
]

Now for the compound whose EC50 we want.
Qu. Reported EC50 for `COc1ccc(C2=N[C@@H](c3ccc(Cl)cc3)[C@@H](c3ccc(Cl)cc3)N2C(=O)N2CCNC(=O)C2)c(OC(C)C)c1` : what is it?
Ans. 33.3 µM

----------
The following compounds are shown together with reported EC50 values.
Tested on: CFPAC-1
measurement_notes: MTT cell viability, CFPAC-1 cells
Format: cell-based, human
applied_conditions: CFPAC-1 pancreatic ductal adenocarcinoma, p53 Mutant
Bridge positions count the residues as written; N and C are the ends. Square brackets hold non-standard residues; d marks the D form. Peptide text beside a SMILES is read from it.

Qu. Look at this compound and give its reported EC50. COc1ccc(C2=N[C@@H](c3ccc(Cl)cc3)[C@@H](c3ccc(Cl)cc3)N2C(=O)N2CCNC(=O)C2)c(OC(C)C)c1 [Nutlin 3A]
Ans. > 50 µM

Qu. Same lookup for N=C(N)NCCC[C@@H]1NC(=O)[C@@H](CCCNC(=N)N)NC(=O)[C@H](CCCCN)NC(=O)[C@@H](N)CCCCNC(=O)CC[C@@H](C(=O)O)NC(=O)[C@@H](CCCNC(=N)N)NC(=O)[C@H](CCCNC(=N)N)NC(=O)[C@@H](CCCCN)NC(=O)[C@H](CCCCN)NC(=O)[C@@H](CCCNC(=N)N)NC(=O)CNC(=O)[C@@H](CCCNC(=N)N)NC1=O [cTAT] (H-KK[dR]R[dR]G[dR]K[dK]R[dR]E-OH; lactam 1-12; N-terminus and C-terminus assumed) , please.
Ans. > 100 µM
